Tested on: Plasmodium berghei
Assay: Screen against P. berghei liver stage (PbLuc), transformed with Luciferase, at 10uM
Type: functional, HepG2
Conditions: tested at 10 uM
Screen size: about 69,000 compounds; about 8,600 (12%) showed an effect of 50% or more. The sample as a whole holds a higher share of strong results than the screen did.
measured.metric: INHIBITION (%)
Numbers only, in %.

molecule="COc1cc(CNC(C)Cn2cccn2)cc(OC)c1OC (stereo unspecified)" measured_metric=INHIBITION measured=36.4
molecule="Cc1cnn(CC(C)NCc2ccc(OCc3nccn3C)cc2)c1 (stereo unspecified)" measured_metric=INHIBITION measured=-34
molecule="Cc1cnn(CC(C)NCc2cc(=O)n3cc(C)ccc3n2)c1 (stereo unspecified)" measured_metric=INHIBITION measured=-16.1
molecule=Cc1cnn(CCNCc2ccc(OCC(N)=O)cc2)c1 measured_metric=INHIBITION measured=-41.1
molecule="Cc1cnn(CC(C)NCc2ccc(OCc3cscn3)cc2)c1 (stereo unspecified)" measured_metric=INHIBITION measured=-11.4

Next, consider the following molecule.
# input Entry Cc1cnn(CC2CCCN2Cc2cc(=O)n3ccccc3n2)c1 (stereo unspecified) has what INHIBITION?
# output 28.3
